src = patent US20200171136A1

Biological target: Endoplasmic reticulum aminopeptidase 1 (ERAP1) (UniProt Q9NZ08 1-941, limits assumed)
Sequence (Q9NZ08 whole entry): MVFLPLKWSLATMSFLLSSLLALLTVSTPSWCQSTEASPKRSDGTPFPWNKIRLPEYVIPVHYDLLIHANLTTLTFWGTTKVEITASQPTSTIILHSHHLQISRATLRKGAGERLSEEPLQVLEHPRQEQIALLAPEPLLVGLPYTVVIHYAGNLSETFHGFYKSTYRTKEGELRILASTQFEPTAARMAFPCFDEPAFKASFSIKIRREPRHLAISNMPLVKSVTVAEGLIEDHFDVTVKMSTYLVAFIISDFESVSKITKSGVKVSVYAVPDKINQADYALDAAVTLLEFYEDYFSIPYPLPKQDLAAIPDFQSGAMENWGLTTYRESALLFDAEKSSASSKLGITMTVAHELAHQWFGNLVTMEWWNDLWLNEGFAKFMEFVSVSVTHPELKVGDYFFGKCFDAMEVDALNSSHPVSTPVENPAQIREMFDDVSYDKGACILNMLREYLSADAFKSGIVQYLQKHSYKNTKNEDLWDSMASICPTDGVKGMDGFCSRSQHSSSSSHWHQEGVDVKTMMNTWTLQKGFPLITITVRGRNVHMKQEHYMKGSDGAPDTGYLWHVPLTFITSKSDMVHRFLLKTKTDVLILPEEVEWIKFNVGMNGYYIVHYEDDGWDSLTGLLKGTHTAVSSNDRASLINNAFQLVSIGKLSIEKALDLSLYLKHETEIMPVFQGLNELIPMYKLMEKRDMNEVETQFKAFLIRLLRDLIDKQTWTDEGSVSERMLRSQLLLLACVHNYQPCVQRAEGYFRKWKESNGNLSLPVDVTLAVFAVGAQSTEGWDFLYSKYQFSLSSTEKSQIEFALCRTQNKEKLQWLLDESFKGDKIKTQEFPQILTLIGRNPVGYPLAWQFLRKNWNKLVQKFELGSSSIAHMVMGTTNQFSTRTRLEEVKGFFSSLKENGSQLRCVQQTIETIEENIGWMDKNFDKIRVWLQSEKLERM
Experiment: cell-based or functional assay
Field: formation rate of … (SEQ ID NO: 43)(%). Provide a value for each of the binders that follow.
Numbers only, in %.

# count of solved cases: 3
The recorded formation rate of … (SEQ ID NO: 43)(%) for entry ACVLQELNVTV [peptide ACVLQELNVTV (SEQ ID NO: 143)] equals 1.8

formation rate of … (SEQ ID NO: 43)(%) measured on SCVLQELNVTV [peptide SCVLQELNVTV (SEQ ID NO: 157)] = 1.3

Entry YCVLQELNVTV [peptide YCVLQELNVTV (SEQ ID NO: 160)] ; formation rate of … (SEQ ID NO: 43)(%) = 0.7

New cases:
// GCVLQELNVTV [peptide GCVLQELNVTV (SEQ ID NO: 149)] : formation rate of … (SEQ ID NO: 43)(%) value = 1.1
